We begin with a simple list: items and their reported cell viability.
# System: WHIM30 (cells of a triple-negative basal-like breast cancer xenograft)
# Experiment description: cell viability (% of vehicle); higher = less cytotoxic;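 further: PDX cells carrying CMV promoter-driven luciferase, viability read as total photon flux per second by IVIS imaging following D-luciferin, vehicle control 0.1% DMSO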
# Condition notes: 10 µM; 72 h

| Compound | cell viability |
| --- | --- |
| CC(=O)Oc1cc(C(F)(F)F)ccc1C(=O)O [Triflusal] | 85.4 |
| CC(O)C1C(=O)N2C(C(=O)O)=C(SC3CNC(C(=O)N(C)C)C3)C(C)C12.O.O.O (centres undefined) [Meropenem trihydrate] | 78.3 |
| O=C([C@H](CCC/N=C(N)/N)NS(=O)(C1=C2NC[C@H](C)CC2=CC=C1)=O)N3[C@@H](C(O)=O)C[C@H](C)CC3 [Argatroban] | 132 |
| Nc1cccc2c1C(=O)N(C1CCC(=O)NC1=O)C2=O (centres undefined) [Pomalidomide (CC-4047)] | 134 |

* * *

# System: HCI11 (cells of an ER-positive luminal breast cancer xenograft)
# Experiment description: cell viability (% of vehicle); higher = less cytotoxic
# Condition notes: 10 µM; 72 h
Each entry below carries its recorded cell viability.

| Compound | Assayed system | cell viability |
| --- | --- | --- |
| CC(O)C1C(=O)N2C(C(=O)OCOC(=O)C(C)(C)C)=C(SC3CN(C4=NCCS4)C3)C(C)C12 (stereo not drawn) | HCI11 | 115 |
| Cc1c(O)c(=O)ccn1C | HCI11 | 77.1 |
| COc1cc(C)c(C=CC(C)=CC=CC(C)=CC(=O)O)c(C)c1C | HCI11 | 86.5 |
| CCC(=O)OC1(C(=O)CCl)C(C)CC2C3CC(F)C4=CC(=O)C=CC4(C)C3(F)C(O)CC21C (stereo not drawn) [Halobetasol Propionate] | HCI11 | 133 |
| CCN1CCN(Cc2ccc(Nc3ncc(F)c(-c4cc(F)c5nc(C)n(C(C)C)c5c4)n3)nc2)CC1.CS(=O)(=O)O | HCI11 | 135 |
| CN1CCN2c3ncccc3Cc3ccccc3C2C1 (stereo not drawn) | HCI11 | 103 |
| C=CC1=C(C(=O)O)N2C(=O)C(NC(=O)C(=NO)c3csc(N)n3)C2SC1 (stereo not drawn) | HCI11 | 120 |
| CC12CCC3=C4CCC(=O)C=C4CCC3C1CCC2(O)CC#N (stereo not drawn) | HCI11 | 82.2 |
| C#CC1(O)CCC2C3CCc4cc(O)ccc4C3CCC21C (stereo not drawn) | HCI11 | 102 |
| Cc1ccc(-c2ncc(Cl)cc2-c2ccc(S(C)(=O)=O)cc2)cn1 | HCI11 | 79.9 |
| CC12CCC(O)CC1=CCC1C2CCC2(C)C(n3cnc4ccccc43)=CCC12 (stereo not drawn) | HCI11 | 76.2 |
| CCC1C(O)C2C3CCC(C(C)CCC(=O)O)C3(C)CCC2C2(C)CCC(O)CC12 (stereo not drawn) | HCI11 | 112 |
| C[C@H]1O[C@@H](O[C@H]2[C@@H](O)C[C@H](O[C@H]3[C@@H](O)C[C@H](O[C@H]4CC[C@@]5(C)[C@H](CC[C@@H]6[C@@H]5C[C@@H](O)[C@]5(C)[C@@H](C7=CC(=O)OC7)CC[C@]65O)C4)O[C@@H]3C)O[C@@H]2C)C[C@H](O)[C@@H]1O | HCI11 | 69.2 |
| Nc1nc(=O)n(C2CSC(CO)O2)cc1F (stereo not drawn) | HCI11 | 107 |
| Cc1c(-c2ccc(O)cc2)n(Cc2ccc(OCCN3CCCCCC3)cc2)c2ccc(O)cc12.Cl [Bazedoxifene HCl] | HCI11 | 73.9 |
| C1N2CN3CN1CN(C2)C3 | HCI11 | 90.8 |
| Cl.c1ccc2c(c1)CCCC2C1=NCCN1 (stereo not drawn) [Tetrahydrozoline HCl] | HCI11 | 106 |
| O=C(O)C1=CC(=NNc2ccc([O-])c(C(=O)[O-])c2)C=CC1=O.[Na+].[Na+] [Olsalazine Sodium] | HCI11 | 102 |
| Cc1cccc(CN2CCN(C(c3ccccc3)c3ccc(Cl)cc3)CC2)c1.Cl.Cl (stereo not drawn) [Meclizine 2HCl] | HCI11 | 67.4 |
| Cc1c(NC(=O)c2cccnc2)c(=O)n(-c2ccccc2)n1C | HCI11 | 114 |
| Cc1cc(C#N)cc(C)c1Oc1nc(Nc2ccc(C#N)cc2)nc(N)c1Br | HCI11 | 93.4 |
| O=c1sn(-c2cccc3ccccc23)c(=O)n1Cc1ccccc1 | HCI11 | 96.3 |
| C1=C\COCc2cc(ccc2OCCN2CCCC2)Nc2nccc(n2)-c2cccc(c2)COC/1 | HCI11 | 131 |
| CC(O)C1C(=O)N2C(C(=O)O)=C(SC3CNC(C(=O)N(C)C)C3)C(C)C12.O.O.O (stereo not drawn) [Meropenem trihydrate] | HCI11 | 92.4 |
| Nc1nc(CC(=O)Nc2ccc(CCNCC(O)c3ccccc3)cc2)cs1 (stereo not drawn) | HCI11 | 107 |
| CC[C@H](C)[C@@H]1NC(=O)[C@H](Cc2ccc(O)cc2)NC(=O)[C@@H](N)CSSC[C@@H](C(=O)N2CCC[C@H]2C(=O)N[C@@H](CC(C)C)C(=O)NCC(N)=O)NC(=O)[C@H](CC(N)=O)NC(=O)[C@H](CCC(N)=O)NC1=O | HCI11 | 69.2 |
| COc1c2ccoc2cc2oc(=O)ccc12 | HCI11 | 93.8 |
| Cl.NC(N)=NC(N)=NCCc1ccccc1 [Phenformin HCl] | HCI11 | 110 |

Data origin, for the record: the supplement of paper PMC6992640
